- Tested on: SEM cells
- Assay: cell viability relative to DMSO control; higher = less cytotoxic
- Measurement parameters: HPLM + 10% dialyzed FBS; 48 h; 46.1 µM
Measured property: cell viability (%)
One number for each entry, in %.

Molecule	Target or system	Measurement units	cell viability
C=CC(=O)Nc1cccc(Oc2nc(Nc3ccc(N4CCN(C)CC4)cc3OC)ncc2Cl)c1	SEM cells	%	13.3
CC(Cc1ccc(O)c(O)c1)(NN)C(=O)O (centres undefined)	SEM cells	%	79.9
Nc1nc2ccc(OC(F)(F)F)cc2s1	SEM cells	%	78.3

Shifting focus to the molecule that follows.
// query Find the recorded cell viability belonging to O=C(O)[C@@H](c1ccc(OCc2ccc3ccccc3n2)cc1)C1CCCC1 and report it.
// result 95.6

Hey, just so you know, these numbers are from the supplement of paper PMC11451515.
